assayed.target: Rvs167, P39743
Sequence (P39743 419-482): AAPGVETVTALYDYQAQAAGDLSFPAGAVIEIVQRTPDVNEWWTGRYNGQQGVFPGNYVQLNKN
assay.info: SPOT array
condition.info: median of control spots 2707
measurement.label: SPOT intensity
Lab note: write the figure by itself, no unit.

// returns reported SPOT intensity for input LRIKRKPVQTFFEFI
2

// returns reported SPOT intensity for input FLIKFTPKFPQSIDH
2

// returns reported SPOT intensity for input EREKALPPIPFTTTL
2

From: paper PMC2756588
